# System: SF-539 CNS
# procedure.summary: NCI-60 one-dose screen, 48 h (100 = growth as untreated, 0 = no growth, -100 = all killed)
# recorded.conditions: 10 µM unless noted
The panel holds about 83,000 compounds, 20% with a hit somewhere; the sample as a whole holds those more often.
Recorded measurements of growth, one per entry
observation.type: growth (%)

>>> measured_result("O=C1c2c(O)cc(O)cc2-c2c(-c3ccc(O)cc3)oc3cc(O)cc1c23")
25.2
>>> measured_result("CC1=CC(C)(C)Nc2ccc(Cc3ccc4c(c3)C(C)=CC(C)(C)N4)cc21")
96.6
>>> measured_result("Cc1ccc(O)c(N2C(=NCc3ccco3)NS(=O)(=O)c3cnccc32)c1")
97.9
>>> measured_result("CCN1CCN(c2nc(NCCCNc3ccnc4cc(Cl)ccc34)c3ccccc3n2)CC1")
-74.4
>>> measured_result("COc1cc2nc(N3CCCC3)nc(NCCc3ccccc3)c2cc1OC")
86.1
>>> measured_result("O=S(=O)(Nc1ccc(Cl)c(F)c1)c1ccc(-c2cnc(C3CC3)o2)cc1")
-15.5
>>> measured_result("CN(C)S(=O)(=O)c1cccc(-c2nc3sc4c(c3c(=O)[nH]2)CCCC4)c1")
23
>>> measured_result("Cn1cccc1-c1nc2c3c(ccc2[nH]1)C(=O)c1ccccc1C3=O")
90.7
>>> measured_result("CCCCC/C(C=C(C#N)C#N)=C/c1ccccc1")
92.3
>>> measured_result("CSc1nc(NCCN2CCOCC2)c(C#N)c(-c2cccc([N+](=O)[O-])c2)n1")
90.3

====

# Test system: ACHN renal
# procedure.summary: NCI-60 one-dose screen, 48 h (100 = growth as untreated, 0 = no growth, -100 = all killed)
# recorded.conditions: 10 µM unless noted
Compounds without any hit were thinned out: in the full panel of roughly 83,000, 20% have a hit. Activity calls are given as the source filed them. How the source made its calls: active means growth percent below 10; inactive means the rest.
observation.type: growth

>>> measured_result("C#CCOc1ccc2ncnc(Nc3cccc(CNC(=O)CCl)c3)c2c1")
"37.8% [8.25 µM] (inactive)"
>>> measured_result("N#C/C(=C\\c1ccc(-c2cc(C(F)(F)F)ccc2Cl)o1)c1nc(-c2ccco2)cs1")
"105% (inactive)"
>>> measured_result("CC1CCNC(C)C1 (stereo unspecified)")
"106% (inactive)"
>>> measured_result("O=C(Nc1ccc(Cl)cc1)c1cc2cc(F)ccc2cc1O")
"3.91% (active)"
>>> measured_result("COc1cc2nnc3c4cccnc4[nH]c3c2cc1OC")
"-36.7% (active)"
>>> measured_result("COc1cc2c(cc1O)CC[C@@H]1[C@@H]2CC[C@]2(C)[C@@H](OCCCN(C)C)CC[C@@H]12")
"-62.8% (active)"
>>> measured_result("COC(=O)c1ccc(Cn2cnc3c(N)ncnc32)cc1")
"101% (inactive)"
>>> measured_result("O=c1cc(CSc2nnc(SCc3cc(=O)oc4c3ccc3ccccc34)o2)c2ccc3ccccc3c2o1")
"102% (inactive)"
>>> measured_result("O=C1c2cc3c(cc2-c2c1c1ccc(Cl)cc1c(=O)n2CCCN1CCOCC1)OCO3")
"13.1% (inactive)"
>>> measured_result("CCOC(=O)c1sc(Nc2ccc(Cl)cc2)nc1C")
"14.3% (inactive)"
>>> measured_result("C=CC(=O)Nc1cccc(-c2nc(SC)nc(NCCN3CCOCC3)c2C#N)c1")
"80.8% (inactive)"
>>> measured_result("CN(C)CCN1C(=O)c2cccc3c(N)ccc(c23)C1=O")
"12.8% (inactive)"
>>> measured_result("COc1ccc(NC(=O)c2ccc(/C=C/C(=O)c3ncc[nH]3)cc2)cc1")
"86.3% (inactive)"
>>> measured_result("O=C1c2ccccc2C(=O)c2c(N=Nc3[nH]c(=S)[nH]c3O)cccc21")
"41.4% (inactive)"
>>> measured_result("NNCCc1ccc(NC(=O)CCCc2ccc(/C=C/C(=O)NO)cc2)cc1")
"88.3% (inactive)"
>>> measured_result("O=C(Cc1ccccc1Nc1c(Cl)cccc1Cl)NN1C(=O)/C(=C/c2ccc(Br)cc2)SC1=S")
"104% (inactive)"
>>> measured_result("CC(O)CN(CC(C)O)c1ccc2c(c1)Cc1cc([N+](=O)[O-])ccc1-2 (stereo unspecified)")
"93% (inactive)"
>>> measured_result("COC(=O)[C@@H]1CCCN1C(=O)[C@@H]1CCCN1C(=O)[C@H](Cc1ccccc1)NC(=S)Nc1cc(C(F)(F)F)cc(C(F)(F)F)c1")
"72.2% (inactive)"
>>> measured_result("CSc1nc(Nc2cccc(NC(=O)/C(C#N)=C/c3c(Cl)cccc3Cl)c2)c(C#N)c(-c2cccc([N+](=O)[O-])c2)n1")
"57.9% (inactive)"
>>> measured_result("COc1ccc(S(=O)(=O)N2CCCCC2)cc1NC(=O)c1[nH]c(C)c2c1CCCCC2=O")
"19.8% (inactive)"
>>> measured_result("COc1ccc(-c2nn(-c3ccc(Cl)cc3)cc2-c2nc3ccccc3[nH]2)cc1")
"89.5% (inactive)"

====

# Tested on: 786-0 renal
# procedure.summary: NCI-60 one-dose screen, 48 h
# recorded.conditions: 10 µM unless noted
The panel holds about 83,000 compounds, 20% with a hit somewhere; the sample as a whole holds those more often. Calls of active or inactive are those of the source. How the source made its calls: active means growth percent below 10; inactive means the rest.
Possible outcomes: yes (1) (active), no (0) (inactive)

>>> class("N#C/C(=C\\c1ccc(-c2cc(C(F)(F)F)ccc2Cl)o1)c1nc(-c2ccco2)cs1")
"no (0)"
>>> class("CCCc1cc(=O)n2c(C(=O)Nc3ccc(F)cc3)c(C(=O)Nc3ccc(F)cc3)sc2n1")
"no (0)"
>>> class("Cc1ccccc1COc1ccc(-c2ccnn2-c2ccc(Cl)cc2)cc1")
"no (0)"
>>> class("COc1ccc(CN2c3ccccc3Sc3ccccc32)c(C(F)(F)F)c1")
"no (0)"
>>> class("Cc1ccc2oc(=O)cc(C3c4ccc([nH]4)C(c4cc(=O)oc5ccc(C)cc45)c4ccc([nH]4)C(c4cc(=O)oc5ccc(C)cc45)c4ccc([nH]4)C(c4cc(=O)oc5ccc(C)cc45)c4ccc3[nH]4)c2c1 (stereo unspecified)")
"yes (1)"
>>> class("COc1ccc(CN2c3ccccc3Oc3ccccc32)cc1O")
"no (0)"
>>> class("COc1cc2nc(N3CCCC3)nc(NCCc3ccccc3)c2cc1OC")
"no (0)"
>>> class("c1ccc2[nH]c(-c3ccc(Nc4nc(N5CCCC5)nc5[nH]ncc45)cc3)nc2c1")
"yes (1)"
>>> class("COc1cc2nc(N3CCCC3)nc(Nc3ccccc3)c2cc1OC")
"yes (1)"
>>> class("C#CC(F)(F)[C@]1(O)CC[C@H]2[C@@H]3CCC4=CC(=O)CCC4=C3[C@@H](c3ccc(C(C)=O)cc3)C[C@@]21C")
"yes (1)"
>>> class("CCn1c(O)c(/C=N/NC(=O)C(C)c2ccc(CC(C)C)cc2)sc1=S (stereo unspecified)")
"no (0)"
>>> class("COc1ccc(SC2c3ccc(C)cc3Oc3nc(N)c(C#N)c(N)c32)cc1 (stereo unspecified)")
"yes (1)"
>>> class("COC(=O)c1ccc(Cn2cnc3c(N)ncnc32)cc1")
"no (0)"
>>> class("CCCCN1CCCn2c1nc1c2c(=O)n(CCC)c(=O)n1CCC")
"no (0)"
>>> class("COc1cccc(-c2nc3sccn3c2-c2ccnc(NCCNS(=O)(=O)c3ccc(F)cc3)c2)c1")
"no (0)"
>>> class("Cn1cc(C(=O)c2nc(-c3c[nH]c4ccc(Br)cc34)no2)c2cc(F)ccc21")
"no (0)"
>>> class("COc1cc(C(=O)/C=C/c2cccnc2Nc2ccc(Cl)cc2)cc(OC)c1OC")
"yes (1)"
>>> class("FC(F)(F)c1ccc(-c2cn3nc(-c4c[nH]c5ccc(Br)cc45)sc3n2)cc1")
"no (0)"
>>> class("CSc1nc(NCCO)c(C#N)c(-c2cccc([N+](=O)[O-])c2)n1")
"no (0)"
>>> class("C=CC(COC(c1ccccc1)(c1ccccc1)c1ccccc1)N(CC)CC (stereo unspecified)")
"no (0)"
>>> class("O=C1/C(=C/C(Cl)=C/c2ccccc2)SC(=S)N1CCc1ccc(O)cc1")
"yes (1)"
>>> class("Cn1ncc2c(=O)nc3c(-c4ccccc4)n[nH]n3c21")
"no (0)"
>>> class("O=C1c2ccccc2C(=O)c2c1ccc1[nH]c(-c3cccs3)nc21")
"no (0)"
>>> class("Cn1ccnc1C(=O)/C=C/c1ccc(CC(=O)Nc2ccccc2)cc1")
"no (0)"
>>> class("COC[C@H](C)n1c(C2CCOCC2)nc2cnc3cc(-c4c(C)noc4C)c(OC)cc3c21")
"no (0)"
>>> class("c1ccc(Cn2cc(-c3nc4ccccc4s3)c3cccnc32)cc1")
"no (0)"
>>> class("Cc1ccc(C2=NN3C(C2)c2cc(Br)ccc2OC32CCN(Cc3ccccc3)CC2)o1 (stereo unspecified)")
"no (0)"
>>> class("COc1ccc(-n2nc(C)c3c(Nc4ccc(NC(=O)Nc5c(Cl)cccc5Cl)cc4)ncnc32)cc1")
"no (0)"
>>> class("N#Cc1c(N)n(CCNC(=O)c2ccccc2)c2nc3ccccc3nc12")
"no (0)"
>>> class("C#CCOc1ccc2ncnc(N3CCC(NC(=O)CCl)CC3)c2c1")
"no (0)"
>>> class("O=C(COc1ccc(-c2nc3cc(Cl)c(Cl)cc3[nH]2)cc1)N=Nc1c(O)[nH]c2ccccc12")
"yes (1)"
>>> class("Cc1nc2c3c(-c4ccccc4)c(-c4ccccc4)oc3ncn2n1")
"no (0)"
>>> class("CCOC(=O)C(C)(C#N)C1C=CCCC1 (stereo unspecified)")
"no (0)"
>>> class("O=C(/C=C/C=C/c1ccc2c(c1)OCO2)N/N=C\\c1ccc(O)cc1O")
"no (0)"
>>> class("COc1ccc(S(=O)(=O)N2CCCCCC2)cc1NC(=O)c1[nH]c(C)c2c1CCCCC2=O")
"no (0)"
>>> class("Nc1ccc(-c2cc3c(NCc4ccccc4)ncnc3s2)cc1")
"no (0)"
>>> class("CCC([N+](=O)[O-])S(=O)(=O)c1ccc(C)cc1 (stereo unspecified)")
"no (0)"
>>> class("O=C1c2cc3c(cc2-c2c1c1ccc(F)cc1c(=O)n2CCCNCCO)OCO3")
"yes (1)"
>>> class("COc1cc(C2CC(=O)c3ccccc3N2)cc(OC)c1OC (stereo unspecified)")
"no (0)"
>>> class("COc1cc(C(=O)Oc2ccccc2OC(=O)c2cc(OC)c(OC)c(OC)c2)cc(OC)c1OC")
"no (0)"
>>> class("NC(=NCCCOc1ccc(Cl)cc1)Nc1ccc(Cl)cc1")
"no (0)"
